B1: FAM107A (parent)
chain: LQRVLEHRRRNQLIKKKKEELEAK

# Variants of: B1
# runDescription: protein stability index of a GFP-peptide fusion (GPS, HEK-293T) (PSI 1-6); higher = more stable;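 further: lentivirally expressed fusions sorted by FACS into six bins by GFP to DsRed ratio, PSI derived from sequencing read proportions per bin multiplied by bin number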
# conditionDescription: c terminus: a fixed tail appended
If the reported protein stability index equals or exceeds 4, assign label 1. If not, assign label 0.

Some solved entries appear below for comparison.
[[record]]
sequencestring = "LQRVLEHRRRNFLIKKKKEELEAK"
labelvalue = "label 0"

[[record]]
sequencestring = "LQRVLEHRRRNQLIKKKKDELEAK"
labelvalue = "label 1"

[[record]]
sequencestring = "LQRVLEHRRKNQLIKKKKEELEAK"
labelvalue = "label 0"

[[record]]
sequencestring = "LQRVLEHRRRNQLIKKWKEELEAK"
labelvalue = "label 0"

[[record]]
sequencestring = "LQRVLHHRRRNQLIKKKKEELEAK"
labelvalue = "label 0"


For this variant, is measured protein stability index 4 or higher? LQRVLEHRRRNQLIKKHKEELEAK label 0

Try the variant LQRVLRHRRRNQLIKKKKEELEAK label 0

Repeat with LLRVLEHRRRNQLIKKKKEELEAK label 0

Entry LQRVLEHRRRNQLIKKKFEELEAK please label 1

Same for LQRVLEHRRRNQLIKKKDEELEAK label 1

What do you get for IQRVLEHRRRNQLIKKKKEELEAK ? label 0

Please give the result for KQRVLEHRRRNQLIKKKKEELEAK too. label 1

Lookup LQRVLEHRRRNQLIKKKKEEWEAK label 0

And then LQRVLEHRRRNQLIKKKKEELEAE , what is it? label 1
